SYSTEM: Vasopressin V1a receptor (Homo sapiens, UniProt P37288)
Sequence (P37288 whole entry): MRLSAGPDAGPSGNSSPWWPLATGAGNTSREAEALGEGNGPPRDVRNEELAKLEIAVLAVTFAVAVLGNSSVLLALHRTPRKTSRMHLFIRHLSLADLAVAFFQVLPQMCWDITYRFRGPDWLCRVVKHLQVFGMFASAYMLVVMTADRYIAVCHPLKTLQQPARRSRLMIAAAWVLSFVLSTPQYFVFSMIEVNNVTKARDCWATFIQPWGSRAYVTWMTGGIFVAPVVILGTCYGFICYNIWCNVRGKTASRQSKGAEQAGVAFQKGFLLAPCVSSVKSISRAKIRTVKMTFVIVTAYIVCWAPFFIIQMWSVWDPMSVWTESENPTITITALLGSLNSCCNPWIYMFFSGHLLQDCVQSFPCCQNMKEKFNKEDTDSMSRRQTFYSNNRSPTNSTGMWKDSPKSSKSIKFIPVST
PROCEDURE_SUMMARY: Binding affinity against human vasopressin V1a receptor was determined by using plasma membranes from CHO cells stably transfected with VP/OT receptors
MEASUREMENT_NAME: Ki
Record the result as number plus unit.

# count of solved cases: 5
[
  {
    "MOLECULE": "NCCC[C@@H]1NC(=O)[C@H](Cc2ccccc2)NC(=O)[C@H](Cc2ccc(O)cc2)NC(=O)CCSSC[C@@H](C(=O)N2CCC[C@H]2C(=O)N[C@@H](CCCN=C(N)N)C(=O)NCC(N)=O)NC(=O)[C@H](CC(N)=O)NC1=O (stereo in doubt)",
    "ASSAY_RESULT": "88 nM"
  },
  {
    "MOLECULE": "CC[C@H](C)[C@@H]1NC(=O)[C@H](Cc2ccccc2)NC(=O)[C@H](Cc2ccc(O)cc2)NC(=O)CCSSC[C@@H](C(=O)N2CCC[C@H]2C(=O)N[C@@H](CCCN=C(N)N)C(=O)NCC(N)=O)NC(=O)[C@H](CC(N)=O)NC1=O",
    "ASSAY_RESULT": "16.8 nM"
  },
  {
    "MOLECULE": "NCCCC[C@@H]1NC(=O)[C@H](Cc2ccccc2)NC(=O)[C@H](Cc2ccc(O)cc2)NC(=O)CCSSC[C@@H](C(=O)N2CCC[C@H]2C(=O)N[C@@H](CCCN=C(N)N)C(=O)NCC(N)=O)NC(=O)[C@H](CC(N)=O)NC1=O (stereo in doubt)",
    "ASSAY_RESULT": "463 nM"
  },
  {
    "MOLECULE": "CC(C)C[C@@H]1NC(=O)[C@H](Cc2ccccc2)NC(=O)[C@H](Cc2ccc(O)cc2)NC(=O)CCSSC[C@@H](C(=O)N2CCC[C@H]2C(=O)N[C@@H](CCCN=C(N)N)C(=O)NCC(N)=O)NC(=O)[C@H](CC(N)=O)NC1=O",
    "ASSAY_RESULT": "44.1 nM"
  },
  {
    "MOLECULE": "NCC[C@@H]1NC(=O)[C@H](Cc2ccccc2)NC(=O)[C@H](Cc2ccc(O)cc2)NC(=O)CCSSC[C@@H](C(=O)N2CCC[C@H]2C(=O)N[C@@H](CCCN=C(N)N)C(=O)NCC(N)=O)NC(=O)[C@H](CC(N)=O)NC1=O (stereo in doubt)",
    "ASSAY_RESULT": "36.3 nM"
  }
]

State the recorded Ki for every item in the following list.
1. NC(=O)CNC(=O)[C@H](CCCN=C(N)N)NC(=O)[C@@H]1CCCN1C(=O)[C@@H]1CSSCCC(=O)N[C@@H](Cc2ccc(O)cc2)C(=O)N[C@@H](Cc2ccccc2)C(=O)N[C@@H](Cc2ccccc2)C(=O)N[C@@H](CC(N)=O)C(=O)N1 (stereo in doubt)
2. NC[C@@H]1NC(=O)[C@H](Cc2ccccc2)NC(=O)[C@H](Cc2ccc(O)cc2)NC(=O)CCSSC[C@@H](C(=O)N2CCC[C@H]2C(=O)N[C@@H](CCCN=C(N)N)C(=O)NCC(N)=O)NC(=O)[C@H](CC(N)=O)NC1=O (stereo in doubt)
3. NC(=O)CNC(=O)[C@H](CCCN=C(N)N)NC(=O)[C@@H]1CCCN1C(=O)[C@@H]1CSSCCC(=O)N[C@@H](Cc2ccc(O)cc2)C(=O)N[C@@H](Cc2ccccc2)C(=O)N[C@@H](CCCCN=C(N)N)C(=O)N[C@@H](CC(N)=O)C(=O)N1 (stereo in doubt)

-- reply
1. 80 nM
2. 19.7 nM
3. 48.2 nM
